- Tested on: MDA-MB-435
Classes used: active, inactive

> print(dat)
                                    compound  answer.label
 1  C[C@H](Nc1ccc2c(c1)OCCn1cc(N3C(=O)OC[C@H]3C(F)F)nc1-2)C(N)=O      inactive
 2  Cc1ccc2c(c1)C(=O)C(c1c(-c3[nH]c(=O)c4ccc(C)cc4c3O)c(O)c3ccccc3c1O)=NC2=O      inactive
 3  COc1ccc(C(=O)N2N=C(c3ccc(Br)cc3)CC2c2cn(-c3ccccc3)nc2-c2ccccc2)cc1 (stereo unspecified)      inactive
 4  COc1cc(Cl)cc(-c2nn(-c3cccc(NC(=O)c4cccc(C(F)(F)F)c4)c3)cc2-c2ccncc2)c1      inactive
 5  COc1ccc2c(c1)c(-c1nonc1-c1cn(C)c3ccccc13)cn2C        active
 6  CCOc1cc2ncc(C#N)c(Nc3ccc(F)c(Cl)c3)c2cc1NC(=O)CC1CCSS1 (stereo unspecified)      inactive
 7  COc1ccc(OC)c(N(CCN2C(=O)c3ccccc3C2=O)C(=O)CCl)c1      inactive
 8  CN1CCN(CCOc2ccc(-c3cnc4c(-c5cccc(F)c5F)cnn4c3)cc2)CC1      inactive
 9    Cc1ccc(Cl)cc1Nc1nc(C(F)(F)F)ccc1C(N)=O      inactive
10  COc1ccc2c3c([nH]c2c1)C(=O)c1nc(C)ccc1C3=O      inactive
11  O=S(=O)(Nc1cccc(Cl)c1)c1ccc(-c2cnc(C3CC3)o2)cc1        active
